- Tested on: yeast HSP78 (YDR258C) sequence
- protocol description: Duplex melting temperatures of HSP78 25-mer capture probes (UV spectrophotometer)
- condition details: 25-mer capture probe duplex with complementary target; design PM = perfectly matched, MM = single mismatch; DNA, LNA_T (T) or LNA_TC (TC) substituted
l = locked nucleic acid (LNA); [5mC] = 5-methylcytosine; d = 2'-deoxy (DNA)
observation type: Average duplex melting temp. (°C)
Give a bare numeral; the unit °C is implied.

• 12741 (DNA TCAGTTAGCCAAACCTTCGCTTCAT; sugars from the 5' end dlddlddddlddddddlddlddldd, [5mC] at 2, 10, 20, 23, backbone not given here) [compound 12741] = 70.6
• 12720 (DNA TTTGGTAGCACGTCAAGCTTAGTAT; sugars from the 5' end lllddlddddddddddddllddldd, backbone not given here) [compound 12720] = 68.6

Turning to the following substance.
Data request: Reported Average duplex melting temp., substance 12756 (DNA GAAACATCGGGGTGCGCTTTTTCAA; DNA, backbone not given here; further chemistry not fully specified) [compound 12756] : ____
Data returned: 68.7

* * *

- System: yeast HSP78 (YDR258C) sequence
- protocol description: Duplex melting temperatures of HSP78 25-mer capture probes (UV spectrophotometer)
- condition details: 25-mer capture probe duplex with complementary target; design PM = perfectly matched, MM = single mismatch; DNA, LNA_T (T) or LNA_TC (TC) substituted
l = locked nucleic acid (LNA); d = 2'-deoxy (DNA)
Binary label based on Average duplex melting temp. with cut-off 70 °C: below gives rule met, not below gives rule not met.

The following substances have reported results that may help.
- 12792 (DNA TTTGGTAGCACGACAAGCTTAGTAT; sugars from the 5' end lllddlddddddddddddllddldd, backbone not given here; further chemistry not fully specified) [compound 12792]: rule not met
- 12767 (DNA AGACGTACAGCATCAGAAATAGCAG; DNA, backbone not given here; further chemistry not fully specified) [compound 12767]: rule met
- 12688 (DNA GACCTAAGAACAAAAAGCTGGCAAT; DNA, backbone not given here) [compound 12688]: rule met
- 12806 (DNA CCGATTAAACGAGAGACAGTATGCT; sugars from the 5' end llddlldddlddddddlddldldld, all C 5-methyl, backbone not given here; further chemistry not fully specified) [compound 12806]: rule not met

Data request: Please let me know if 12763 (DNA GCAATGGCCTCGTCTTGGCCAACGA; DNA, backbone not given here; further chemistry not fully specified) [compound 12763] shows Average duplex melting temp. below 70 °C.
Data returned: rule not met

Data request: # TODO verify Average duplex melting temp. < 70 °C strictly for this substance: 12766 (DNA GTTGCCATGGAGTTCAAAATCTGTC; DNA, backbone not given here) [compound 12766]
Data returned: rule met

* * *

- System: yeast HSP78 (YDR258C) sequence
- protocol description: Duplex melting temperatures of HSP78 25-mer capture probes (UV spectrophotometer)
- condition details: 25-mer capture probe duplex with complementary target; design PM = perfectly matched, MM = single mismatch; DNA, LNA_T (T) or LNA_TC (TC) substituted
l = locked nucleic acid (LNA); [5mC] = 5-methylcytosine; d = 2'-deoxy (DNA)
Class MET: Average duplex melting temp. at least 70 °C. Class NOT MET: Average duplex melting temp. below 70 °C.

- 12745 (DNA ATAAAGCTGGCATTAGGTCTCTTTT; sugars from the 5' end dlddddllddlddddddllldllld, [5mC] at 7, 11, 19, backbone not given here) [compound 12745]: MET
- 12704 (DNA ACCATCATCACCGAACTTTGTGTCG; DNA at ACG, LNA at T, backbone not given here) [compound 12704]: MET
- 12815 (DNA AGACGTACAGCATCAGAAATAGCAG; DNA at AG, LNA at CT, all C 5-methyl, backbone not given here; further chemistry not fully specified) [compound 12815]: MET
- 12777 (DNA CAATGATCGTGTTACGGAAATCAAC; sugars from the 5' end dddlddlddlddldddddddldddd, backbone not given here; further chemistry not fully specified) [compound 12777]: MET
- 12814 (DNA GTTGCCATGGAGTTCAAAATCTGTC; sugars from the 5' end dlddlldlddddldlddddllddld, [5mC] at 5, 6, 15, 21, backbone not given here; further chemistry not fully specified) [compound 12814]: MET

Kindly review the next substance as well.
Data request: Given 12681 (DNA CAATGATCGTGTAACGGAAATCAAC; DNA, backbone not given here) [compound 12681] , state whether its Average duplex melting temp. is at least 70 °C.
Data returned: NOT MET

* * *

- Test system: yeast HSP78 (YDR258C) sequence
- protocol description: Duplex melting temperatures of HSP78 25-mer capture probes (UV spectrophotometer)
- condition details: 25-mer capture probe duplex with complementary target; design PM = perfectly matched, MM = single mismatch; DNA, LNA_T (T) or LNA_TC (TC) substituted
l = locked nucleic acid (LNA); d = 2'-deoxy (DNA)
observation type: Average duplex melting temp. (°C)
# output: bare number, implied unit °C

See these solved cases before continuing.
- 12714 (DNA ATAGCAGCAATGCCCTCGTCTTGGC; DNA at ACG, LNA at T, backbone not given here) [compound 12714]: 71.3
- 12724 (DNA TCAATGGCCTTGGACCATATAATTG; DNA at ACG, LNA at T, backbone not given here) [compound 12724]: 69.7

Data request: // returns reported Average duplex melting temp. for input 12736 (DNA GACCTAAGAACAAAAAGCTGGCAAT; sugars from the 5' end ddllldddddlddddddllddlddd, all C 5-methyl, backbone not given here) [compound 12736]
Data returned: 71.4
